Ref: PubChem BioAssay (EPA / NIEHS)

# test_protocol: APR_HepG2_CellLoss_24hr: Apredica 24-hour HepG2 Assay for Cell Loss (AID 2282908);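 on AC50: fit in both directions so a hit may be cell loss or gain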
# stated_conditions: high-content imaging
The source made the active and inactive calls. How the source made its calls: active means hit-call score of the fitted dose curve at least 0.9, where 1 is the maximum; inactive means score below 0.9.
property_measured: AC50

>  <chemical_smiles>
Cc1cccc([N+](=O)[O-])c1

>  <value_measured>
inactive

$$$$
>  <chemical_smiles>
Cc1ccccc1O

>  <value_measured>
inactive

$$$$
>  <chemical_smiles>
O=C(NC(=O)c1cc(F)c(F)cc1Cl)Nc1cc(F)ccc1N1CCC(C(=O)O)CC1

>  <value_measured>
inactive

$$$$
>  <chemical_smiles>
O=C(O)C(F)(F)C(F)(F)C(F)(F)C(F)(F)C(F)(F)C(F)(F)C(F)(F)C(F)(F)C(F)(F)F

>  <value_measured>
108 µM (active)

$$$$
>  <chemical_smiles>
CC(C)(O)C(=O)Nc1ccc([N+](=O)[O-])c(C(F)(F)F)c1

>  <value_measured>
inactive

$$$$

We now examine a further compound.
Query: AC50 lookup needed for NS(=O)(=O)C(F)(F)C(F)(F)C(F)(F)C(F)(F)C(F)(F)C(F)(F)C(F)(F)C(F)(F)F , thanks.
Reply: 93.4 µM (active)

###

# test_protocol: CCTE_Shafer_MEA_dev_network_spike_peak: CCTE's Neural Network Formation Assay for Mean Number of Electrodes in Network Spike, Shafer Lab (AID 2284049);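 on AC50: fitted for loss of signal meaning fewer electrodes in network spikes than DMSO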
Active and inactive are the calls of the source. How the source made its calls: active means hit-call score of the fitted dose curve at least 0.9, where 1 is the maximum; inactive means score below 0.9.
property_measured: AC50

Would you please look over these solved cases?
>  <chemical_smiles>
ClC1=C(Cl)[C@]2(Cl)[C@@H]3[C@H]4C[C@H]([C@@H]5O[C@H]45)[C@@H]3[C@@]1(Cl)C2(Cl)Cl

>  <AC50>
inactive

$$$$
>  <chemical_smiles>
COc1ccc(O)c(C(C)(C)C)c1

>  <AC50>
inactive

$$$$
>  <chemical_smiles>
CCC(C)(c1ccc(O)cc1)c1ccc(O)cc1

>  <AC50>
10 µM (active)

$$$$
>  <chemical_smiles>
ClC1=C(Cl)[C@]2(Cl)[C@@H]3[C@@H](Cl)[C@H]4O[C@H]4[C@@H]3C1(Cl)C2(Cl)Cl

>  <AC50>
25 µM (active)

$$$$
>  <chemical_smiles>
ClC(Cl)=C(c1ccc(Cl)cc1)c1ccc(Cl)cc1

>  <AC50>
4 µM (active)

$$$$

Query: Need AC50 of c1cc2ccc3cccc4ccc(c1)c2c34 , thanks.
Reply: inactive

Query: Same question for O=C(O)C(F)(F)C(F)(F)C(F)(F)C(F)(F)C(F)(F)F please.
Reply: inactive

Query: Similarly, O=C(O)C(F)(F)C(F)(F)C(F)(F)C(F)(F)C(F)(F)C(F)(F)C(F)(F)C(F)(F)F ?
Reply: inactive

Query: Subsequent entry: ClC1=C(Cl)[C@]2(Cl)[C@@H]3[C@@H]4C[C@@H]([C@H]5O[C@@H]45)[C@@H]3[C@@]1(Cl)C2(Cl)Cl
Reply: 10.8 µM (active)

Query: For C=CC(N)=O then?
Reply: inactive

###

# Read-out: Monocyte Chemoattractant Protein-1 (MCP1), CCL2 (gene 6347)
# test_protocol: BSK_CASM3C_MCP1: BioMAP Diversity Plus: CASM3C Assay for Monocyte Chemoattractant Protein-1 (MCP1) Biomarker Activity (AID 2283046);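 further: MCP-1 level quantified by ELISA 24 h after dosing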
# stated_conditions: primary human coronary artery smooth muscle cells; actives raise or lower the signal
Activity calls are given as the source filed them. The calls were made as follows: active = hit-call score of the fitted dose curve at least 0.9, where 1 is the maximum; inactive = score below 0.9.
property_measured: AC50

Below, 10 compounds whose answers are already recorded.
>  <compound>
C[C@]12CCC(=O)C=C1CC[C@@H]1[C@@H]2CC[C@@]2(C)[C@H]1CC[C@]2(C)O

>  <AC50>
inactive

$$$$
>  <compound>
Cc1cc(-c2ccc(N)c(C)c2)ccc1N

>  <AC50>
inactive

$$$$
>  <compound>
CO/C=C(/C(=O)OC)c1ccccc1COc1cccc(C(F)(F)F)n1

>  <AC50>
inactive

$$$$
>  <compound>
N#Cc1ccc(N(CC(N)=O)CC(F)(F)F)cc1C(F)(F)F

>  <AC50>
335 nM (active)

$$$$
>  <compound>
CC(c1ccc(O)cc1)(c1ccc(O)cc1)c1ccc(O)cc1

>  <AC50>
5430 nM (active)

$$$$
>  <compound>
c1ccc(-c2ccccc2)cc1

>  <AC50>
inactive

$$$$
>  <compound>
CCOP(=S)(OCC)SCSC(C)(C)C

>  <AC50>
inactive

$$$$
>  <compound>
Nn1cnnc1

>  <AC50>
inactive

$$$$
>  <compound>
Cc1ccc(O)c(C)c1

>  <AC50>
inactive

$$$$
>  <compound>
CCCCCCOC(=O)c1ccccc1C(=O)OCCCCCC

>  <AC50>
inactive

$$$$

Now, please, on to the next compound.
Query: What AC50 value was documented for this compound, CC(C)(c1ccccc1)c1ccc(O)cc1 ?
Reply: inactive

###

# Read-out: Cytochrome P450 3A7 (Homo sapiens)
# test_protocol: LTEA_HepaRG_CYP3A7: Life Technologies and Expression Analysis (LTEA) Assay for CYP3A7 using HepaRG (AID 2283492)
# stated_conditions: mRNA level, 48 h; actives raise or lower the signal
The source made the active and inactive calls. How the source made its calls: active means hit-call score of the fitted dose curve at least 0.9, where 1 is the maximum; inactive means score below 0.9.
One label from this list, please: active, inactive

Worked examples, 4 compounds total:
>  <chemical_smiles>
C[C@]12CCC(=O)C=C1CC[C@@H]1[C@@H]2CC[C@@]2(C)[C@H]1CC[C@]2(C)O

>  <classification>
inactive

$$$$
>  <chemical_smiles>
CC1=C2C[C@H]3[C@@H](CC=C4C[C@@H](O)CC[C@@]43C)[C@@H]2CC[C@]12O[C@@H]1C[C@H](C)CN[C@H]1[C@H]2C

>  <classification>
inactive

$$$$
>  <chemical_smiles>
C=CC(N)=O

>  <classification>
inactive

$$$$
>  <chemical_smiles>
Cc1ccc(O)c(C)c1

>  <classification>
inactive

$$$$

Query: GET /call?item= O=C(O)C(F)(F)C(F)(F)C(F)(F)C(F)(F)C(F)(F)C(F)(F)C(F)(F)C(F)(F)F returns the recorded outcome of this test.
Reply: active

###

# Read-out: 3-Hydroxy-3-Methylglutaryl-CoA Synthase 2 (HMGCS2), HMGCS2 (gene 3158)
# test_protocol: LTEA_HepaRG_HMGCS2: Life Technologies and Expression Analysis (LTEA) Assay for 3-Hydroxy-3-Methylglutaryl-CoA Synthase 2 (HMGCS2) using HepaRG (AID 2283504)
# stated_conditions: mRNA level, 48 h; actives raise or lower the signal
Active and inactive are the calls of the source. Rule for the calls: active = hit-call score of the fitted dose curve at least 0.9, where 1 is the maximum; inactive = score below 0.9.
Just give me one of these, please: yes for active, no for inactive

Reference set, count: 5
>  <molecule>
c1cc2ccc3cccc4ccc(c1)c2c34

>  <classification>
no

$$$$
>  <molecule>
O=C(N[C@H]1CN2CCC1CC2)c1cc2ccoc2cn1

>  <classification>
no

$$$$
>  <molecule>
Cc1ccccc1CO[C@@H]1C[C@@]2(C(C)C)CC[C@]1(C)O2

>  <classification>
no

$$$$
>  <molecule>
CCOCCOC(C)=O

>  <classification>
no

$$$$
>  <molecule>
Oc1ccc(C(c2ccc(O)cc2)(C(F)(F)F)C(F)(F)F)cc1

>  <classification>
yes

$$$$

Query: Lab log entry: Cc1ccccc1O — outcome as called in the assay?
Reply: no

Query: Next molecule up: Clc1ccc(Cl)cc1
Reply: no

Query: And then CN(C)CCO , what is it?
Reply: no

Query: And the next one, COc1ccc(O)c(C(C)(C)C)c1 ?
Reply: no

Query: One more molecule: c1ccc(-c2ccccc2)cc1
Reply: no

Query: Do the same for CCSC(=O)N(CC)C1CCCCC1 please
Reply: no

Query: Also need CN(C)c1nc(=O)n(C2CCCCC2)c(=O)n1C , thanks.
Reply: no

###

# Read-out: Tumor necrosis factor receptor superfamily member 6 (Homo sapiens)
# test_protocol: LTEA_HepaRG_FAS: Life Technologies and Expression Analysis (LTEA) Assay for Fas cell surface death receptor (FAS) using HepaRG (AID 2283447)
# stated_conditions: mRNA level, 48 h; actives raise or lower the signal
The source made the active and inactive calls. Rule for the calls: active = hit-call score of the fitted dose curve at least 0.9, where 1 is the maximum; inactive = score below 0.9.
property_measured: AC50

>  <chemical_smiles>
C=CC(=O)NCNC(=O)C=C

>  <value_measured>
inactive

$$$$
>  <chemical_smiles>
ClC(Cl)=C(c1ccc(Cl)cc1)c1ccc(Cl)cc1

>  <value_measured>
inactive

$$$$
>  <chemical_smiles>
CCCCCCCCCc1ccc(O)cc1

>  <value_measured>
inactive

$$$$
>  <chemical_smiles>
CC(C)(c1ccccc1)c1ccc(O)cc1

>  <value_measured>
inactive

$$$$

Query: Which measured AC50 value corresponds to CCOP(=S)(OCC)SCSC(C)(C)C ?
Reply: inactive

Query: Would you mind doing CCCCCCOC(=O)c1ccccc1C(=O)OCCCCCC as well?
Reply: inactive

Query: Could you do the same for O=C(O)C(F)(F)C(F)(F)C(F)(F)C(F)(F)C(F)(F)C(F)(F)C(F)(F)C(F)(F)F , please?
Reply: 69.2 µM (active)

Query: Further, for ClC1=C(Cl)[C@]2(Cl)[C@@H]3[C@@H](Cl)[C@H]4O[C@H]4[C@@H]3C1(Cl)C2(Cl)Cl ?
Reply: inactive

Query: And what about the molecule Oc1ccc(C(c2ccc(O)cc2)(C(F)(F)F)C(F)(F)F)cc1 ?
Reply: inactive

Query: # iterate: Cc1ccccc1CO[C@@H]1C[C@@]2(C(C)C)CC[C@]1(C)O2
Reply: inactive

Query: And Clc1ccc(Cl)cc1 ?
Reply: inactive

Query: Can you handle O=C(NC(=O)c1cc(F)c(F)cc1Cl)Nc1cc(F)ccc1N1CCC(C(=O)O)CC1 next?
Reply: inactive

Query: Now the same for CCCCCCCCCC[N+](C)(C)CCCCCCCCCC
Reply: inactive

Query: One more molecule: CC#Cc1cc(C)nc(Nc2ccccc2)n1
Reply: inactive

Query: Okay, and Cc1ccccc1O ?
Reply: inactive

Query: Please give the result for CC(c1ccc(O)cc1)(c1ccc(O)cc1)c1ccc(O)cc1 too.
Reply: 91.1 µM (active)

Query: Continue with C[C@]12CCC(=O)C=C1CC[C@@H]1[C@@H]2CC[C@@]2(C)[C@H]1CC[C@]2(C)O
Reply: inactive

Query: What do we get for C[C@]12CCC(=O)C=C1CC[C@@H]1[C@@H]2CC[C@]2(C)C(=O)CC[C@@H]12 ?
Reply: inactive

Query: Could you do the same for O=C(N[C@H]1CN2CCC1CC2)c1cc2ccoc2cn1 , please?
Reply: inactive

Query: Next record, please: O=C(NC(=O)c1c(F)cccc1F)Nc1cc(Cl)c(OC(F)(F)C(F)F)c(Cl)c1
Reply: inactive
